biological target: recombinant human Cathepsin S (Homo sapiens (Human)); assay: Cathepsin S assay procedure (fluorogenic substrate Z-Val-Val-Arg-AMC); format: biochemical; details: pH5.5, fluorescence at 20 minutes, read-out: Cat S activity IC50
Sequence (P25774 115-331): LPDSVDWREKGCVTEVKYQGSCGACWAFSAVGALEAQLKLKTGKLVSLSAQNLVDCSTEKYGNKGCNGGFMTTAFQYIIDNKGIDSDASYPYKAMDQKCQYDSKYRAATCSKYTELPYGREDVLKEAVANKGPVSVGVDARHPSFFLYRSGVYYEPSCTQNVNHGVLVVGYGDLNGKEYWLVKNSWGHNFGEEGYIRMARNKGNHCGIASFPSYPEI
// values below are reported pIC50
The meaning of pIC50 here: minus log10 of the concentration in molar units.

[Q] Need pIC50 of CN(C)CCCOc1ccc(-c2cc3c(ncn3C)c(C#N)n2)cc1C(F)(F)F [WO 2009/010491 - Example 2a, reference compound] , thanks.
[A] 7.49

[Q] Need pIC50 of Cc1cccc(N2CCC(CCOc3ccc(-c4cc5c(ncn5C)c(C#N)n4)cc3C(F)(F)F)CC2)n1 [EP 09150709.5 - Example 24c, reference compound] , thanks.
[A] 7.59

[Q] Need pIC50 of CN(C)C(=O)CN1CCC(CCOc2ccc(-c3cc4c(ncn4C)c(C#N)n3)cc2C(F)(F)F)CC1.Cl [EP 09150709.5 - Example 14d, reference compound] , thanks.
[A] 8.08

[Q] Need pIC50 of "Cn1nnc2c(C#N)nc(-c3ccc(OCCC4CCNCC4)c(C(F)(F)F)c3)cc21" , thanks.
[A] 9.10

[Q] Need pIC50 of CN(C)C(=O)CN1CCC(CCOc2ccc(-c3cc4c(nnn4C)c(C#N)n3)cc2C(F)(F)F)CC1.Cl [Example 2a, hydrochloride] , thanks.
[A] 8.82

[Q] Need pIC50 of "CN(C)CCCOc1ccc(-c2cc3c(nnn3C)c(C#N)n2)cc1C(F)(F)F" , thanks.
[A] 8.48

---

assay: Rat oral bioavailability; settings: Sprague-Dawley, in vivo, SD rat, read-out: Bioavailability F
Reported Endpoint: bioavailability (%)
Give a bare numeral; the unit % is implied.

• CN(C)C(=O)CN1CCC(CCOc2ccc(-c3cc4c(ncn4C)c(C#N)n3)cc2C(F)(F)F)CC1.Cl [EP 09150709.5 - Example 14d, reference compound] = 9

--- query ---
[Q] Need bioavailability of "CN(C)C(=O)CN1CCC(CCOc2ccc(-c3cc4c(nnn4C)c(C#N)n3)cc2C(F)(F)F)CC1.Cl" , thanks.
[A] 42

---

target: recombinant human Cathepsin S (Homo sapiens (Human)); assay: Cathepsin S assay procedure (fluorogenic substrate Z-Val-Val-Arg-AMC); type: biochemical; conditions: pH5.5, fluorescence at 20 minutes, read-out: Cat S activity IC50
Structures can show the parent of a compound that is named as a salt.
Reported Endpoint: IC50
Please answer in the form of a number followed by its unit of measurement.

• Cn1cnc2c(C#N)nc(-c3ccc(CCCO)c(C(F)(F)F)c3)cc21 [WO 2009/010491, Example 15, reference compound] = 234 nM
• Cn1cnc2c(C#N)nc(-c3ccc(OCCC4CCNCC4)c(C(F)(F)F)c3)cc21 [WO 2009/010491, Example 14a, reference compound] = 8 nM
• Cc1cccc(N2CCC(CCOc3ccc(-c4cc5c(nnn5C)c(C#N)n4)cc3C(F)(F)F)CC2)n1 [Example 4b, hydrochloride] = 9 nM

[Q] Need IC50 of "Cn1nnc2c(C#N)nc(-c3ccc(CCCO)c(C(F)(F)F)c3)cc21" , thanks.
[A] 13 nM
